measured target: Cytochrome P450 2C19 (Homo sapiens)
Sequence (P33261 whole entry): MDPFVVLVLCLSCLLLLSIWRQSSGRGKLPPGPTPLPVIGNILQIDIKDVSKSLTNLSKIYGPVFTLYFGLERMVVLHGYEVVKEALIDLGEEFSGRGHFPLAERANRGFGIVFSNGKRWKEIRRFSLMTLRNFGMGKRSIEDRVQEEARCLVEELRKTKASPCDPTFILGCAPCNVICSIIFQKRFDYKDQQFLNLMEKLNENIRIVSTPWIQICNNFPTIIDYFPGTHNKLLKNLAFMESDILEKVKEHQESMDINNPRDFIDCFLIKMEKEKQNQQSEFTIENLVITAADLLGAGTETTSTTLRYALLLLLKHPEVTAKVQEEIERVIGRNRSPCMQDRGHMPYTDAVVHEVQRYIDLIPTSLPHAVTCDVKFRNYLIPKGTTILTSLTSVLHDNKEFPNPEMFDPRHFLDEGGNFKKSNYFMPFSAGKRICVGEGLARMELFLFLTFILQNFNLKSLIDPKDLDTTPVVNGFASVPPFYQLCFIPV
measured endpoint: IC50

compound="Cc1cccc(-c2noc(C3CC(=O)N(c4ccc(F)cc4)C3)n2)c1 (racemic)" measured_endpoint=IC50 readout_value="> 11 µM"

----------
measured target: Metabotropic glutamate receptor 5 (Homo sapiens)
Sequence (P41594 21-1212 limits assumed): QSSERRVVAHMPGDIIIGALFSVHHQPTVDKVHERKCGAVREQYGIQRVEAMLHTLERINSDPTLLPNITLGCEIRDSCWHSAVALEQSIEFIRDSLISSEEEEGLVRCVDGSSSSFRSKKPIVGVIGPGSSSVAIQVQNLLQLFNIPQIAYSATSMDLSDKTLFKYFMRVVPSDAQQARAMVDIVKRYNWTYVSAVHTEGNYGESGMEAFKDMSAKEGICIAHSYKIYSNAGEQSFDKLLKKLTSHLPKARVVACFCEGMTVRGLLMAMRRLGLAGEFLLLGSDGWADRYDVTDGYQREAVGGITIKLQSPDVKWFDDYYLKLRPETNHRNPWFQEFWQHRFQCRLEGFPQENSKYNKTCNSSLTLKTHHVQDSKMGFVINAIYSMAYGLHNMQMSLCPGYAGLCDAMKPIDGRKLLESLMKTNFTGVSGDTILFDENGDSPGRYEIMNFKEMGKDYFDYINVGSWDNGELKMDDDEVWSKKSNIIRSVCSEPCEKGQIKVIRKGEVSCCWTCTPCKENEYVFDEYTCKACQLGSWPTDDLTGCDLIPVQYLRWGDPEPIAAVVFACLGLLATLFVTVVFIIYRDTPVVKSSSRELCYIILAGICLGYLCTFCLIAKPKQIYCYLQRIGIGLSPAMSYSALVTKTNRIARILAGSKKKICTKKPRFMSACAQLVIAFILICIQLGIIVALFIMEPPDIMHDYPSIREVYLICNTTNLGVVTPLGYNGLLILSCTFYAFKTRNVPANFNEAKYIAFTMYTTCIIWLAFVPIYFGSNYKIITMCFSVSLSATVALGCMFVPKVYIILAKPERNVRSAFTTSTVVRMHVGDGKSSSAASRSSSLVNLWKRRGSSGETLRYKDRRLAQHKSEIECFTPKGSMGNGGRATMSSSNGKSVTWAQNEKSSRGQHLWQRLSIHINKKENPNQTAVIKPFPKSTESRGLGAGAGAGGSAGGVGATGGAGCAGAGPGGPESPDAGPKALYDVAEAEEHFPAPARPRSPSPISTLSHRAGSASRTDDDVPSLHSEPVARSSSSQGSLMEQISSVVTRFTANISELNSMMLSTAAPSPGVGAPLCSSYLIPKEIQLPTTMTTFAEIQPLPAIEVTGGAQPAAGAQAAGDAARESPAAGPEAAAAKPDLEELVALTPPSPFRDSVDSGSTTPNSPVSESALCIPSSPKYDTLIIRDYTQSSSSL
test: Negative allosteric modulation of human mGluR5 expressed in HEK293A cells assessed as inhibition of glutamate-induced calcium flux by FLIPR method
Format: functional, cell-based
Parameters: concentration or dose not given beside the values
stated conditions: HEK293-A, concentration not given here
Assign class by inhibition: not lower than 90% means t; lower than 90% means f.

compound=O=C1CCc2ccc(Cl)cc2N1CCc1nc(-c2cccc(Cl)c2)no1 qualitative_label=f
compound=O=c1oc2ccccc2n1Cc1nc(-c2cccc(Cl)c2)no1 qualitative_label=f
compound="Cc1cccc(N2CC(c3nc(-c4cccc(Cl)c4)no3)CC2=O)c1 (stereo not given)" qualitative_label=f
compound="O=C1CC(c2nc(-c3cccc(Cl)c3)no2)CN1c1ccccc1Cl (stereo not given)" qualitative_label=t
